target: ML-IAP-BIR (Homo sapiens, UniProt Q96CA5); construct: made in house; host or cells: Escherichia coli BL21 (DE3); assay: fluorescence polarization competition assay, ML-IAP-BIR; type: binding
Sequence (Q96CA5 63-179): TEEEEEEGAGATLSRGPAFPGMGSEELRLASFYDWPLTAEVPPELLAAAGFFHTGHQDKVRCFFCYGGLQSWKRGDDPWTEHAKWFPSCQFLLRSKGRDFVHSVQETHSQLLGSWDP
pKi: −log10 of the molar value. No end group written: not given here.
endpoint-name: pKi

Some sequences with recorded pKi:
ATAVIEKSE	5.37
AIPFEEKSE	6.36

[a] AVPWGLKSE
[b] AEAVAWKSE
[Q] # argmax over pKi for candidates a and b Lab log: write the label of the selected item as the result.
[A] a
(a: 6.38, b: 5.03)

---

biological target: XIAP-BIR2 (Homo sapiens, UniProt P98170, C202A/C213G); construct: X-IAP BIR2 (amino acid residues 124-240 with mutations C202A and C213G); made in house; host or cells: Escherichia coli BL21 (DE3); assay: fluorescence polarization competition assay, XIAP-BIR2; format: binding
Sequence (P98170 124-240 C202A/C213G): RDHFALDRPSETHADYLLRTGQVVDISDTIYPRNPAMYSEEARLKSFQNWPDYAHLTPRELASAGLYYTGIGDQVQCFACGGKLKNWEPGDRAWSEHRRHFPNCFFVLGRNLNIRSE
No end group written: not given here.
endpoint-name: Ki (µM)

AVPWGLKSE	6.9

[P] AIPFEEKSE
[Q] AEAVAWKSE
[R] ATAVIEKSE
[Q] hey, can you rank those sequences up there by Ki? biggest number first please Respond with an ordered listing of the labels, as requested.
[A] P, R, Q
(P: 8.7 µM, R: 5.7 µM, Q: 2.5 µM)

Reference for the values: patent US20120058953A1
